Origin of measurements: paper PMC12529666

Target: AGO2 F182del (Homo sapiens, UniProt Q9UKV8 1-859, S387D;S824A;S828D;S831D;S834A;del182-182)
Sequence (Q9UKV8 other isoform, or with tags, fused parts or gaps S387D;S824A;S828D;S831D;S834A;del182-182): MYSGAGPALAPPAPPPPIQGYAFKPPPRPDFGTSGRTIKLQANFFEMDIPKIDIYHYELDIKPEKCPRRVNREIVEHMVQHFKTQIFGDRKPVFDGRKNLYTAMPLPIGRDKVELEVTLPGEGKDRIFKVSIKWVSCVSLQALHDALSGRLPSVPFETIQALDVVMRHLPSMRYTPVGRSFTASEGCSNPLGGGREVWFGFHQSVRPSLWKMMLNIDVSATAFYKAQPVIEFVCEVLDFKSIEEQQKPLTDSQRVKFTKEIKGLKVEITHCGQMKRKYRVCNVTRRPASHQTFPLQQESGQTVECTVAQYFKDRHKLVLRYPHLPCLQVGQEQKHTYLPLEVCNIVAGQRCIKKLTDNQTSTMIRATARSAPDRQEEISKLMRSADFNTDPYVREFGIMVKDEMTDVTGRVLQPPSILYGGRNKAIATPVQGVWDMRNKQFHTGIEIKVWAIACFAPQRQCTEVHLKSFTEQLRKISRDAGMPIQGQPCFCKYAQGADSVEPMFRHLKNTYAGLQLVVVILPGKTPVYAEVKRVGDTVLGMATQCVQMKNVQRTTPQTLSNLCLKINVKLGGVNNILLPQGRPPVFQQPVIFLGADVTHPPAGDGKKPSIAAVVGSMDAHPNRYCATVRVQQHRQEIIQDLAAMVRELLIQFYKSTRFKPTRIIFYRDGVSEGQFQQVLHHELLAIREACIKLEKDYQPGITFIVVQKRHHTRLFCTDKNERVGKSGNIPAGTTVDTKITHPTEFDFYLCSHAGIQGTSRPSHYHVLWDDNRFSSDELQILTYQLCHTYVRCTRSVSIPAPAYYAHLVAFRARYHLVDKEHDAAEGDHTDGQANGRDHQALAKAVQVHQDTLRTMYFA
Assay: RNA Bind-n-Seq (nitrocellulose filter binding and sequencing); miR-122 guide loaded in AGO2; 60 min incubation; 30 mM Tris pH 8.0, 100 mM potassium acetate, 2 mM magnesium acetate, 0.5 mM TCEP, 0.005% NP-40, 0.01 mg/ml yeast tRNA; 3 nM AGO2-miR-122, 100 nM RNA library; 60; high values mean tight binding
Conditions: protein: recombinant; tags: His6 (N-terminal, pFastBac HTA)
READOUT_LABEL: binding signal

>>> result("GCACTCTG (ssRNA, constant regions annealed to DNA blockers; guide miR-122 5' phosphate) RNA 1: GAGUUCUACAGUCCGACGAUCCCAACGCACUCUGCACCUGGAAUUCUCGGGUGCCAA RNA 2: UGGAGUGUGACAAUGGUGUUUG DNA 1: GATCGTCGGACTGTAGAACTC DNA 2: TTGGCACCCGAGAATTCCA")
"0.887 fold enrichment over input"
>>> result("ACGCTCTG (ssRNA, constant regions annealed to DNA blockers; guide miR-122 5' phosphate) RNA 1: GAGUUCUACAGUCCGACGAUCCCAACACGCUCUGCACCUGGAAUUCUCGGGUGCCAA RNA 2: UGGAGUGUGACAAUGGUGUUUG DNA 1: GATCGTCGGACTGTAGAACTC DNA 2: TTGGCACCCGAGAATTCCA")
"0.149 fold enrichment over input"
>>> result("ATACCCCA (ssRNA, constant regions annealed to DNA blockers; guide miR-122 5' phosphate) RNA 1: GAGUUCUACAGUCCGACGAUCCCAACAUACCCCACACCUGGAAUUCUCGGGUGCCAA RNA 2: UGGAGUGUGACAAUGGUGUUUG DNA 1: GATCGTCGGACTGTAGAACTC DNA 2: TTGGCACCCGAGAATTCCA")
"0.199 fold enrichment over input"
>>> result("GCACTTCA (ssRNA, constant regions annealed to DNA blockers; guide miR-122 5' phosphate) RNA 1: GAGUUCUACAGUCCGACGAUCCCAACGCACUUCACACCUGGAAUUCUCGGGUGCCAA RNA 2: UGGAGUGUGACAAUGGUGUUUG DNA 1: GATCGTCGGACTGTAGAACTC DNA 2: TTGGCACCCGAGAATTCCA")
"0.82 fold enrichment over input"
